Each recorded value in this set is attributed to ChEMBL document CHEMBL1155410.

molecular target: Beta-secretase 2 (Homo sapiens, UniProt Q9Y5Z0)
Sequence (Q9Y5Z0 whole entry): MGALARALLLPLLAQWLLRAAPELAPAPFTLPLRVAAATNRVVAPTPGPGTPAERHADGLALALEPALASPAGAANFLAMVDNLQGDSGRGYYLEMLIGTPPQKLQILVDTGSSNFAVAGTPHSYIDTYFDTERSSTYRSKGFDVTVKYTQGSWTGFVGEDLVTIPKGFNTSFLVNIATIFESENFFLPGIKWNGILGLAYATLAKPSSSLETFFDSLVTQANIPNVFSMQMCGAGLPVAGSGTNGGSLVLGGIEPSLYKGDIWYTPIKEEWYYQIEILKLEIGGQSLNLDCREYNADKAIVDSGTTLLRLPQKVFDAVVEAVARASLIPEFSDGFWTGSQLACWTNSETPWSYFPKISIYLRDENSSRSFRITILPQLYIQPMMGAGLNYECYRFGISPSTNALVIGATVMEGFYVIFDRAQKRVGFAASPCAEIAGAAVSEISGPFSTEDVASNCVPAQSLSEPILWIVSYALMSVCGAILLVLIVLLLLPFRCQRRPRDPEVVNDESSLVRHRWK
Rule: measured IC50 below 1 µM gets True; anything equal to or greater than 1 µM gets False.

Substance Smiles | Test Target | Assigned Class
CCC(=O)N(C)C(C)(C)[C@H]1CCC[C@@H](C(=O)N[C@@H](Cc2ccccc2)[C@@H](O)CNCc2cccc(C(C)C)c2)C1 | Beta-secretase 2 (Homo sapiens, UniProt Q9Y5Z0) | True
CC(C)c1cccc(CNC[C@H](O)[C@H](Cc2ccccc2)NC(=O)[C@@H]2CCC[C@H](C(C)(C)N3CCCC3=O)C2)c1 | Beta-secretase 2 (Homo sapiens, UniProt Q9Y5Z0) | True
CC(=O)NC(C)(C)[C@H]1CCC[C@@H](C(=O)N[C@@H](Cc2ccccc2)[C@@H](O)CNCc2cccc(C(C)C)c2)C1 | Beta-secretase 2 (Homo sapiens, UniProt Q9Y5Z0) | False
CCCCNC(=O)[C@H](C)C[C@H](O)[C@H](Cc1ccccc1)NC(=O)[C@@H]1CCC[C@H](C2(NC(C)=O)CCCC2)C1 | Beta-secretase 2 (Homo sapiens, UniProt Q9Y5Z0) | False
CC(C)c1cccc(CNC[C@H](O)[C@H](Cc2ccccc2)NC(=O)[C@@H]2CCC[C@H](C(C)(C)N3CCCCC3=O)C2)c1 | Beta-secretase 2 (Homo sapiens, UniProt Q9Y5Z0) | True
CCCCNC(=O)[C@H](C)C[C@H](O)[C@H](Cc1ccccc1)NC(=O)[C@@H]1CCC[C@H]([C@@H](NC(C)=O)C(C)C)C1 | Beta-secretase 2 (Homo sapiens, UniProt Q9Y5Z0) | True

---

target: Beta-secretase 1 (Homo sapiens, UniProt P56817); assay: Inhibition of BACE1
Sequence (P56817 whole entry): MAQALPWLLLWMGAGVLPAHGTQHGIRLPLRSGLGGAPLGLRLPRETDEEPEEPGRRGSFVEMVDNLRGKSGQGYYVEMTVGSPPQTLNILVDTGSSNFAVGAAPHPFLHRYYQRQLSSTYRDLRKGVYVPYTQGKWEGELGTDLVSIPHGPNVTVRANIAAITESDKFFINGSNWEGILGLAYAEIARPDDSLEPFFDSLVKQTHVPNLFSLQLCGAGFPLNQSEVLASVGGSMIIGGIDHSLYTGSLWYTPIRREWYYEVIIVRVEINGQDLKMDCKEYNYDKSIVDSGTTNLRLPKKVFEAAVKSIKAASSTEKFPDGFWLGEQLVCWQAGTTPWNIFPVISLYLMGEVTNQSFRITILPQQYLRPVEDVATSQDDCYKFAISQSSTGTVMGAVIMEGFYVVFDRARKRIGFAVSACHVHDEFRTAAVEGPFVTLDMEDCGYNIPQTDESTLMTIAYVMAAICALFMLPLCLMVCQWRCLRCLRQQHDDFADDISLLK
Rule: IC50 below 3000 nM gives TRUE. Equal to or above 3000 nM gives FALSE.

Substance Smiles | Test Target | Assigned Class
CCCCNC(=O)[C@H](C)C[C@H](O)[C@H](Cc1ccccc1)NC(=O)[C@@H]1CCC[C@H](C2(NC(C)=O)CCCC2)C1 | Beta-secretase 1 (Homo sapiens, UniProt P56817) | TRUE
CCC(=O)N(C)C(C)(C)[C@H]1CCC[C@@H](C(=O)N[C@@H](Cc2ccccc2)[C@@H](O)CNCc2cccc(C(C)C)c2)C1 | Beta-secretase 1 (Homo sapiens, UniProt P56817) | TRUE
CCC(=O)NC(C)(C)[C@H]1CCC[C@@H](C(=O)N[C@@H](Cc2ccccc2)[C@@H](O)CNCc2cccc(C(C)C)c2)C1 | Beta-secretase 1 (Homo sapiens, UniProt P56817) | TRUE
CC(=O)NC(C)(C)[C@H]1CCC[C@@H](C(=O)N[C@@H](Cc2ccccc2)[C@@H](O)CNCc2cccc(C(C)C)c2)C1 | Beta-secretase 1 (Homo sapiens, UniProt P56817) | FALSE
CCCCNC(=O)[C@H](C)C[C@H](O)[C@H](CC(C)C)NC(=O)[C@H](CCSC)NC(=O)[C@H](C)NC(C)=O | Beta-secretase 1 (Homo sapiens, UniProt P56817) | FALSE
CC(C)c1cccc(CNC[C@H](O)[C@H](Cc2ccccc2)NC(=O)[C@@H]2CCC[C@H](C(C)(C)N3CCCC3=O)C2)c1 | Beta-secretase 1 (Homo sapiens, UniProt P56817) | TRUE
CCCCNC(=O)[C@H](C)C[C@H](O)[C@H](Cc1ccccc1)NC(=O)[C@@H]1CCC[C@H]([C@@H](NC(C)=O)C(C)C)C1 | Beta-secretase 1 (Homo sapiens, UniProt P56817) | TRUE
CCCCNC(=O)[C@H](C)C[C@H](O)[C@H](CC(C)C)NC(=O)[C@H](CCSC)NC(=O)[C@@H](NC(C)=O)C(C)C | Beta-secretase 1 (Homo sapiens, UniProt P56817) | TRUE
